# Test system: SR leukemia
# Assay Method Text: NCI-60 one-dose screen, 48 h (100 = growth as untreated, 0 = no growth, -100 = all killed)
# Condition Context: 10 µM unless noted
About 83,000 compounds went through this panel and 20% of them were active in at least one assay; those are over-represented in the sample as a whole.
Assay Readout: growth (%)
Answer in %, number only, no unit symbol.

Jot down growth (SR leukemia) of "O=c1[nH]c(-c2ccccn2)nc2sc3c(c12)CCCCCC3" .
22.1

Jot down growth (SR leukemia) of "CCCC1=NNC(=O)C1" .
103

Jot down growth (SR leukemia) of "COCCOC1=C(Cl)C(=O)c2ccccc2C1=O" .
0.0172

Jot down growth (SR leukemia) of "O=C(Nc1ccc(F)cc1)c1ccc(C(=O)Nc2ccc(F)cc2)cc1" .
94.5

Jot down growth (SR leukemia) of "COc1cc(NC(=O)COc2ccccc2)c(C(N)=O)cc1OC" .
23.3

Jot down growth (SR leukemia) of "Cc1oc2c(c1C(=O)N1CC[C@@H](N)C1)C(=O)c1c(c(O)c3ccccc3c1O)C2=O" .
1.4

Jot down growth (SR leukemia) of CC[Si](CC)(CC)OC1[C@@H](O[Si](CC)(CC)CC)[C@@H](CNC(=O)NC)O[C@H]1n1cnc2c(NC(=O)Nc3ccccc3)ncnc21 (stereo not given in full) .
14.8

Jot down growth (SR leukemia) of CCOC(=O)C1=C(C)N2C(=NC3=C(CCCC/C3=C\c3ccccc3)C2c2ccccc2)S1 (stereo not given) .
90.9

Jot down growth (SR leukemia) of "COc1ccc(NC(=O)COc2ccccc2)c(C(N)=O)c1" .
24.5

Jot down growth (SR leukemia) of "O=C1/C(=C/c2ccccc2F)CNC/C1=C\c1ccccc1F" .
-2.72

Jot down growth (SR leukemia) of "COc1ccc2nc(-n3nc(C)cc3C)c(-n3nc(C)cc3C)nc2c1" .
95

Jot down growth (SR leukemia) of "COc1ccc(-c2nc3sccn3c2/C=C/C(=O)c2cc(OC)c(OC)c(OC)c2)cc1OC" .
14.6

Jot down growth (SR leukemia) of "CC(C)N1CCN(c2ccc(OC[C@H]3CO[C@](Cn4cncn4)(c4ccc(Cl)cc4Cl)O3)cc2)CC1" .
58.1

Jot down growth (SR leukemia) of "C=CC[P+](c1ccccc1)(c1ccccc1)c1ccccc1" .
35.7

Jot down growth (SR leukemia) of "CCCN(CCC)c1ccc(/C=C/c2ccc3cc(OCC)ccc3n2)cc1" .
-8.74

Jot down growth (SR leukemia) of "COc1ccc(-c2nc3sc(C)cn3c2/C=C/C(=O)c2cc(OC)c(OC)c(OC)c2)cc1" .
48.5

Jot down growth (SR leukemia) of CC(C)(C)[Si](C)(C)OC1[C@@H](CNC(=O)NC(=O)CCl)O[C@@H](n2cnc3c(N)ncnc32)[C@H]1O[Si](C)(C)C(C)(C)C (stereo not given in full) .
-58.2

Jot down growth (SR leukemia) of "FC(F)(F)c1ccc2c(c1)n1cnnc1c1nncn21" .
84.1

Jot down growth (SR leukemia) of "COC(=O)[C@@H]1CCCN1C(=O)[C@@H]1CCCN1C(=O)[C@@H](Cc1c[nH]c2ccccc12)NC(=S)Nc1cc(C(F)(F)F)cc(C(F)(F)F)c1" .
-17.5

Jot down growth (SR leukemia) of "O=C1c2[nH]cc(CN[C@@H]3CCCN3)c2C(=O)c2c1c(O)c1ccccc1c2O" .
-69.6

Where do the numbers come from? From PubChem BioAssay (NCI).
